The compounds listed here are annotated with their surface tension liquid-gas.
# Run conditions: 298.15 K; Liquid; Pendant drop shape

Compound: Cc1ccccc1C [1,2-dimethylbenzene]
surface tension liquid-gas (mN/m): 29.6

Compound: Cc1ccc(C)cc1 [1,4-dimethylbenzene]
surface tension liquid-gas (mN/m): 27.89

Compound: CC(C)O [propan-2-ol]
surface tension liquid-gas (mN/m): 20.93

Compound: Cc1cccc(C)c1 [1,3-dimethylbenzene]
surface tension liquid-gas (mN/m): 28.36

* * *

# Run conditions: 298.15 K; 101.33 kPa; Liquid; Vibrating tube method
Numbers after ± are expanded uncertainties.
Reported mass density by item:
Value kind: mass density

Query smiles: Cc1cccc(C)c1
Value kind: mass density
Test result: 859.79 ± 0.16 kg/m3
--
Query smiles: Cc1ccccc1C
Value kind: mass density
Test result: 875.92 ± 0.11 kg/m3
--
Query smiles: CC(C)(C)O
Value kind: mass density
Test result: 780.27 ± 0.16 kg/m3
--
Query smiles: Cc1ccc(C)cc1
Value kind: mass density
Test result: 856.85 ± 0.12 kg/m3
--
Query smiles: CC(C)O
Value kind: mass density
Test result: 780.85 ± 0.16 kg/m3
